Target: Full-length (FL)-PRMT5-MEP50 enzyme complex (Homo sapiens, UniProt O14744)
Construct: Full-length (FL)-PRMT5-MEP50 enzyme complex (recombinant proteins from baculovirus-transfected Sf21 cells: FL-PRMT5; MW=73837 kDa and FL-MEP50; MW=38614); made in house; host or cells: baculovirus-transfected Sf21 cells
Sequence (O14744 whole entry): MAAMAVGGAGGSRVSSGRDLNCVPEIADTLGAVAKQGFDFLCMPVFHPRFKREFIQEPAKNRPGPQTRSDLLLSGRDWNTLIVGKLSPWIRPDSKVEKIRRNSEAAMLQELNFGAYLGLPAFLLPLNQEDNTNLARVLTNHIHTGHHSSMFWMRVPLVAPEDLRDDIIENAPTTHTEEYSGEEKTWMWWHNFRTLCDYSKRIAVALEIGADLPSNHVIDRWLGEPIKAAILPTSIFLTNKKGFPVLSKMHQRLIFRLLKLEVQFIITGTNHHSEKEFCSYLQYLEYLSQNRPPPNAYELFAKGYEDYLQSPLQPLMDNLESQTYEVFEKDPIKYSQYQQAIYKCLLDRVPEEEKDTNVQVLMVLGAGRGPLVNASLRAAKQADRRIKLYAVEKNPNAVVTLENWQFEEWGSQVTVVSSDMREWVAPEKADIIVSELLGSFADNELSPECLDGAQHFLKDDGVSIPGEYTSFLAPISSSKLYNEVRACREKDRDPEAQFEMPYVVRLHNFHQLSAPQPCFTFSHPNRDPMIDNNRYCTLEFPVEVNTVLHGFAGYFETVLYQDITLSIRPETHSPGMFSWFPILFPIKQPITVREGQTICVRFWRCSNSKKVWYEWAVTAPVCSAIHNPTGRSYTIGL
Sequence (Q9BQA1 whole entry partner): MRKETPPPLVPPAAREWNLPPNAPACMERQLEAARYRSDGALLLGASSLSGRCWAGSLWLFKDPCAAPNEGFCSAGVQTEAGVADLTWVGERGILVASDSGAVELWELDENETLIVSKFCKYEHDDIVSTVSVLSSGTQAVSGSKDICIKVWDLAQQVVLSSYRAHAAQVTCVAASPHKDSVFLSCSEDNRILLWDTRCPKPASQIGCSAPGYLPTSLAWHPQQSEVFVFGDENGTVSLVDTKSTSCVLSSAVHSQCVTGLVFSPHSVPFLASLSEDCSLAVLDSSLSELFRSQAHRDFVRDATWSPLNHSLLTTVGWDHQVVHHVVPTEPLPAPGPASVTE
Experiment: PRMT5-MEP50 Enzyme Methylation Assay (Version A)
Type: biochemical
Conditions: second value of 7 parameter biphasic fit; read-out: Enzyme Methylation Assay Version A (EC50 2)
Description: PRMT5-MEP50 Enzyme Methylation Assay (Version A) PRMT5-MEP50 biochemical assay is a direct measurement of the methylation activity of the enzyme complex on a short peptide substrate derived from the N-terminus of H4 histone. Methylation experiment was performed with recombinant PRMT5-MEP50 protein complex. The assessment of inhibitory effect of small molecules was measured by the effectiveness of the compounds to inhibit this reaction (EC50). […]
// values below are reported EC50
Give the number; nM is assumed, so skip it.

Reference set (4 entries):
O=C(c1cn2cc(Cl)cnc2n1)N1CC[C@]2(Cc3ccccc3CN2)[C@H](O)C1 [Example 3] | 918
O=C(c1cn2cccc(Br)c2n1)N1CC[C@]2(Cc3ccccc3CN2)[C@H](O)C1 [Example 209] | 3890
CCCOc1nc(C)ccc1C(=O)N1CC[C@]2(Cc3ccccc3CN2)[C@H](O)C1 [Example 201] | 1020
O=C(c1cn2cc(Br)ccc2n1)N1CC[C@]2(Cc3ccccc3CN2)[C@H](O)C1 [Example 1] | 75.3

[Q] Query the reported EC50 for Full-length (FL)-PRMT5-MEP50 enzyme complex (Homo sapiens, UniProt O14744); item: O=C1Nc2cc(C(=O)N3CC[C@]4(Cc5ccccc5CN4)[C@H](O)C3)ccc2OC1C1CC1 (single isomer, unassigned) [Example 106]
[A] 1010

[Q] Query the reported EC50 for Full-length (FL)-PRMT5-MEP50 enzyme complex (Homo sapiens, UniProt O14744); item: CC(C#N)c1cnc2nc(C(=O)N3CC[C@]4(Cc5ccccc5CN4)[C@H](O)C3)cn2c1 (stereo partly shown) [Example 133]
[A] 16.2

[Q] Query the reported EC50 for Full-length (FL)-PRMT5-MEP50 enzyme complex (Homo sapiens, UniProt O14744); item: O=C(c1cn2c(n1)C(C1CCOC1)CC(C(F)(F)F)C2)N1CC[C@]2(Cc3ccccc3CN2)[C@H](O)C1 (single isomer, unassigned) [Example 160]
[A] 9480

====

// values below are reported EC50
Biological target: Full-length (FL)-PRMT5-MEP50 enzyme complex (Homo sapiens)
Construct: Full-length (FL)-PRMT5-MEP50 enzyme complex (recombinant proteins from baculovirus-transfected Sf21 cells: FL-PRMT5; MW=73837 kDa and FL-MEP50; MW=38614); made in house; host or cells: baculovirus-transfected Sf21 cells
Experiment: PRMT5-MEP50 Enzyme Methylation Assay (Version A)
Assay type: biochemical
Settings: second value of 7 parameter biphasic fit; read-out: Enzyme Methylation Assay Version A (EC50 2)
Give the number; nM is assumed, so skip it.

Reference set (2 entries):
COCC1CC(C)Cn2cc(C(=O)N3CC[C@]4(Cc5ccccc5CN4)[C@H](O)C3)nc21 (single isomer, unassigned) [Example 158] | 29800
O=C(c1cn2cc(Br)cc(C(O)C(F)(F)F)c2n1)N1CC[C@]2(Cc3ccccc3CN2)[C@H](O)C1 (single isomer, unassigned) [Example 30] | 99.4

[Q] Please give the measured EC50 for this compound: "COCCOc1nc(Br)cn2cc(C(=O)N3CC[C@]4(Cc5ccccc5CN4)[C@H](O)C3)nc12"
[A] 105

[Q] Please give the measured EC50 for this compound: CC(C#N)c1ccc2nc(C(=O)N3CC[C@]4(Cc5ccccc5CN4)[C@H](O)C3)cn2c1 (stereo partly drawn)
[A] 43.6

[Q] Please give the measured EC50 for this compound: "Cc1cc(Cl)c2nc(C(=O)N3CC[C@]4(Cc5ccccc5CN4)[C@H](O)C3)cn2c1"
[A] 288

[Q] Please give the measured EC50 for this compound: "O=C(c1cn2cc(Cl)ccc2n1)N1CC[C@]2(Cc3ccccc3CN2)[C@H](O)C1"
[A] 251

[Q] Please give the measured EC50 for this compound: "O=C(c1cn2cc(Br)cnc2n1)N1CC[C@]2(Cc3ccccc3CN2)[C@H](O)C1"
[A] 146

[Q] Please give the measured EC50 for this compound: "N#CC1(c2cc(Br)cn3cc(C(=O)N4CC[C@]5(Cc6ccccc6CN5)[C@H](O)C4)nc23)CC1"
[A] 1060

[Q] Please give the measured EC50 for this compound: "Cc1cc2nnc(C(=O)N3CC[C@]4(Cc5ccccc5CN4)[C@H](O)C3)c(C)n2n1"
[A] 21900

[Q] Please give the measured EC50 for this compound: "O=C(c1cn2cc(F)ccc2n1)N1CC[C@]2(Cc3ccccc3CN2)[C@H](O)C1"
[A] 2460

[Q] Please give the measured EC50 for this compound: "COc1nccc(-c2cc([C@@H](C)OC)c3nc(C(=O)N4CC[C@]5(Cc6ccccc6CN5)[C@H](O)C4)cn3c2)n1"
[A] 112

[Q] Please give the measured EC50 for this compound: "O=C1CCCN1CCOc1nc(Br)cn2cc(C(=O)N3CC[C@]4(Cc5ccccc5CN4)[C@H](O)C3)nc12"
[A] 320

[Q] Please give the measured EC50 for this compound: "O=C(c1ccc2c(c1)NCCN(CC(F)(F)F)C2=O)N1CC[C@]2(Cc3ccccc3CN2)[C@H](O)C1"
[A] 1780

[Q] Please give the measured EC50 for this compound: "Cc1ccc(C(=O)N2CC[C@]3(Cc4ccccc4CN3)[C@H](O)C2)c(OCCO)n1"
[A] 6310

[Q] Please give the measured EC50 for this compound: "O=C(c1cc2ncc(C(F)(F)F)cn2n1)N1CC[C@]2(Cc3ccccc3CN2)[C@H](O)C1"
[A] 344
